# Test system: SR
# ASSAY_NAME: NCI tumour cell line growth inhibition, 48 h
The source made the active and inactive calls. Cut-off read from the data, not from the text of the source: active = GI50 up to about 1.1 µM and inactive = higher. Peptide text beside a SMILES is read from it. * marks the point of attachment. OSu = O=C1CCC(=O)N1O*
Pick from active, inactive when you respond.

O=C(Nc1nc(C23CC4CC(CC(C4)C2)C3)cs1)c1cc2c(ccc3ccccc32)oc1=O : inactive

Query: recorded result category for `CCc1ccc(Nc2cc(=O)[nH]c(SCc3ccccc3)n2)cc1` in this test
inactive

Query: recorded result category for `Cc1cc(C)nc(NS(=O)(=O)c2ccc(Nc3c4ccc(Cl)cc4nc4c(C(=O)NCCN(C)C)cccc34)cc2)n1` in this test
inactive

Query: recorded result category for NCCCCC(NC(=O)C(N)Cc1ccc(O)cc1)C(=O)NC(CCCCN)C(=O)NC(CCCCN)C(=O)ON1C(=O)CCC1=O (configuration not stated) (H-YKKK-OSu; configuration not given here) in this test
inactive

Query: recorded result category for `Cc1c2oc(=O)c(C#N)cc2c2ccccn12` in this test
inactive

Query: recorded result category for `Cn1c(N/N=C/c2ccc(Cl)cc2)nc(-c2ccc(Cl)cc2)c(C#N)c1=O` in this test
inactive

Query: recorded result category for Cc1ccc(C)c(NC(=O)CC2C(=O)Nc3ccccc3S2(=O)=O)c1 (configuration not stated) in this test
inactive

Query: recorded result category for O=C1C(/N=N/c2ccc(-c3nc4ccccc4o3)cc2)NC(=S)N1c1ccccc1 (configuration not stated) in this test
inactive

Reference for the values: ChEMBL document CHEMBL1201862
